- TARGET SYSTEM: T1, alpha-fetoprotein (AFP) (UniProt P02771 19-609)
- T1 sequence: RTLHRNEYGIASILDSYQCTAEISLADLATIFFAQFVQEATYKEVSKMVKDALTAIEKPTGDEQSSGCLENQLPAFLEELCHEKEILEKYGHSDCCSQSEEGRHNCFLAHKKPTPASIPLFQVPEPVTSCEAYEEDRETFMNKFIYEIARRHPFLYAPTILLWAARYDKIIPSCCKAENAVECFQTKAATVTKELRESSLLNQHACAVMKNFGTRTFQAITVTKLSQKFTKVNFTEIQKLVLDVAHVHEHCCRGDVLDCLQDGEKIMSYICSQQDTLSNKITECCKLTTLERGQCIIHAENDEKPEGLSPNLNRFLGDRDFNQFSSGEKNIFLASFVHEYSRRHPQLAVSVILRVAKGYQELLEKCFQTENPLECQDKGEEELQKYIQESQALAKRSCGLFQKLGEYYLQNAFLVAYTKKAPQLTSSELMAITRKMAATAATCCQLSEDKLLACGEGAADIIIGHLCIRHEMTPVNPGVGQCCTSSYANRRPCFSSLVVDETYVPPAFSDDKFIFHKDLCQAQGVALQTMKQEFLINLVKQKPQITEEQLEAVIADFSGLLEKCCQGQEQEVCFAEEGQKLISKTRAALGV
- ASSAY OVERVIEW: capillary electrophoresis (CE-LIF); CE-LIF: 10 uM FAM-aptamer with 100 ug/ml AFP, 25 C, PVA-coated capillary, -8 kV with 0.5 psi; CE buffer composition and pH not given in the material
- CONDITION NOTES: protein: commercial; label: 5' 6-FAM
Entries annotated with measured Kd
Answer by giving the amount and then stating its unit.

>  <BINDER>
AP244 (ssDNA) DNA: GTGACGCTCCTAACGCTGACGGCCCGTCAATCCCCGCGTATCCATTGGTCCTTTACCTGTCCGTCCGAACCAATC

>  <Kd>
4800 nM

$$$$

Continue with the binder presented below.
Output Kd of AP273 (ssDNA) DNA: GTGACGCTCCTAACGCTGACTCAGGTGCAGTTCTCGACTCGGTCTTGATGTGGGTCCTGTCCGTCCGAACCAATC
500 nM
